- Test system: E. coli TESEC Mtb Asd
- Test Details: growth (OD600 after 10 h); higher = more growth (less inhibition)
- Cond: arabinose induction (level): Low; compound 0.1 mM; raw OD600 reference: median of DMSO wells 0.417, cell-free background 0.041
Counter-ions that a name gives are not always drawn.
Attribute Measured: growth

Molecule | Target Desc | Attribute Measured | Value Measured
CC(=O)CC(c1ccccc1)c1c(O)c2ccccc2oc1=O (centres undefined) | E. coli TESEC Mtb Asd | growth | 0.391
CN1C(C(=O)Nc2ccccn2)=C(O)c2sccc2S1(=O)=O | E. coli TESEC Mtb Asd | growth | 0.223
Cc1onc(-c2ccccc2)c1-c1ccc(S(N)(=O)=O)cc1 | E. coli TESEC Mtb Asd | growth | 0.245
C[C@@H]1C[C@H]2[C@@H]3C[C@H](F)C4=CC(=O)C=C[C@]4(C)[C@@]3(F)[C@@H](O)C[C@]2(C)[C@@]1(O)C(=O)COC(=O)C(C)(C)C [Flumethasone pivalate] | E. coli TESEC Mtb Asd | growth | 0.319
OCCN(CCO)c1nc(N2CCCCC2)c2nc(N(CCO)CCO)nc(N3CCCCC3)c2n1 | E. coli TESEC Mtb Asd | growth | 0.0913
CNCC[C@@H](Oc1ccccc1C)c1ccccc1 [Tomoxetine hydrochloride] | E. coli TESEC Mtb Asd | growth | 0.294
Clc1cc(Cl)c(OCC#CI)cc1Cl | E. coli TESEC Mtb Asd | growth | 0.276
COCCOC(=O)C1=C(C)NC(C)=C(C(=O)OC/C=C/c2ccccc2)C1c1cccc([N+](=O)[O-])c1 (centres undefined) | E. coli TESEC Mtb Asd | growth | 0.319
CCc1cccc(CC)c1NC(=O)CN(CC(=O)O)CC(=O)O | E. coli TESEC Mtb Asd | growth | 0.375

----------
- System: E. coli TESEC Mtb Asd
- Test Details: growth (OD600 after 10 h); higher = more growth (less inhibition)
- Cond: arabinose induction (level): Low; compound 0.1 mM; raw OD600 reference: median of DMSO wells 0.417, cell-free background 0.041
The following compounds are listed with their measured growth values.

Compound | growth
C#CCN[C@@H]1CCc2ccccc21 | 0.342
Clc1ccc(CO/N=C(\Cn2ccnc2)c2ccc(Cl)cc2Cl)c(Cl)c1 [Oxiconazole Nitrate] | 0.0577
CCN(CC)C(=O)/C(C#N)=C/c1cc(O)c(O)c([N+](=O)[O-])c1 | 0.149
CC(=O)O[C@H]1C(=O)[C@@]2(C)[C@H]([C@H](OC(=O)c3ccccc3)[C@]3(O)C[C@H](OC(=O)[C@H](O)[C@@H](NC(=O)c4ccccc4)c4ccccc4)C(C)=C1C3(C)C)[C@]1(OC(C)=O)CO[C@@H]1C[C@@H]2O | 0.385
CC[C@H]1OC(=O)[C@H](C)[C@@H](O[C@H]2C[C@@](C)(OC)[C@@H](O)[C@H](C)O2)[C@H](C)[C@@H](O[C@@H]2O[C@H](C)C[C@H](N(C)C)[C@H]2O)[C@](C)(O)C[C@@H](C)/C(=N\OCOCCOC)[C@H](C)[C@@H](O)[C@]1(C)O | 0.205
CN1CCCCC1CCN1c2ccccc2Sc2ccc([S+](C)[O-])cc21 (stereo unspecified) [Mesoridazine besylate] | 0.339

----------
The following compounds are listed with their measured growth values.
- System: E. coli TESEC Mtb Alr
- Test Details: growth (OD600 after 10 h); higher = more growth (less inhibition)
- Cond: arabinose 10000 nM; compound 0.1 mM; raw OD600 reference: median of DMSO wells 0.264, cell-free background 0.041
Structures can show the parent of a compound that is named as a salt.

Compound | growth
COc1ccc2c(c1)N(C[C@H](C)CN(C)C)c1ccccc1S2 [Methotrimeprazine maleat salt] | 0.274
CC(=O)CCCCn1c(=O)c2c(ncn2C)n(C)c1=O [Pentoxifylline] | 0.273
CC1c2cccc(O)c2C(O)=C2C(=O)C3(O)C(O)=C(C(N)=O)C(=O)C(N(C)C)C3C(O)C21 (centres undefined) [Doxycycline hydrochloride] | 0.0456
CC1(C)O[C@@H]2C[C@H]3[C@@H]4C[C@H](F)C5=CC(=O)C=C[C@]5(C)[C@@]4(F)[C@@H](O)C[C@]3(C)[C@]2(C(=O)CO)O1 [Fluocinolone acetonide] | 0.263

----------
- Tested on: E. coli TESEC Mtb Asd
- Test Details: growth (OD600 after 10 h); higher = more growth (less inhibition)
- Cond: arabinose induction (level): High; compound 0.1 mM; raw OD600 reference: median of DMSO wells 0.331, cell-free background 0.041
Counter-ions that a name gives are not always drawn.
The following compounds are listed with their measured growth values.

Compound | growth
COc1ccc(C(=O)c2ccccc2O)c(O)c1 | 0.261
CC1(C)OC(=O)NC1=O | 0.292
COc1cc(OC)c(C(=O)CCCN2CCCC2)c(OC)c1 [Buflomedil hydrochloride] | 0.274
COc1ccc2cc([C@H](C)C(=O)O)ccc2c1 | 0.247
O=C(O)COCCN1CCN(C(c2ccccc2)c2ccc(Cl)cc2)CC1 (stereo not drawn) [Cetirizine dihydrochloride] | 0.223
Cc1cccc(C)c1NC(=O)C1CCCCN1C (stereo not drawn) [Mepivacaine hydrochloride] | 0.366
CC=CC(=O)N(CC)c1ccccc1C | 0.473
CO[C@@]1(NC(=O)C2SC(=C(C(N)=O)C(=O)O)S2)C(=O)N2C(C(=O)O)=C(CSc3nnnn3C)CS[C@@H]21 (stereo partly drawn) | 0.0535
CC1CCc2cc(F)cc3c(=O)c(C(=O)O)cn1c23 (stereo not drawn) | 0.059
CC(=O)c1ccc2c(c1)N(CCCN(C)C)c1ccccc1S2 [Acetopromazine maleate salt] | 0.214
CCN1CCCC(OC(=O)C(c2ccccc2)c2ccccc2)C1 (stereo not drawn) [Piperidolate hydrochloride] | 0.176
Cc1onc(-c2c(Cl)cccc2Cl)c1C(=O)N[C@@H]1C(=O)N2[C@@H]1SC(C)(C)[C@@H]2C(=O)O [Dicloxacillin sodium salt hydrate] | 0.251
c1cnc(N2CCN(Cc3ccc4c(c3)OCO4)CC2)nc1 [Piribedil hydrochloride] | 0.218
OC(c1cc(C(F)(F)F)nc2c(C(F)(F)F)cccc12)C1CCCCN1 (stereo not drawn) [Mefloquine hydrochloride] | 0.0511
CCN(CC)CCOC(=O)C(c1ccccc1)c1ccccc1 [Adiphenine hydrochloride] | 0.197
Cc1[nH]cnc1CN1CCc2c(c3ccccc3n2C)C1=O [Alosetron hydrochloride] | 0.287
CCOC(=O)/C=C(C)/C=C/C=C(C)/C=C/c1c(C)cc(OC)c(C)c1C [Etretinate] | 0.257
CNCC(O)c1ccc(OC(=O)C(C)(C)C)c(OC(=O)C(C)(C)C)c1 (stereo not drawn) [Dipivefrin hydrochloride] | 0.174

----------
- Tested on: E. coli TESEC Mtb Alr
- Test Details: growth (OD600 after 10 h); higher = more growth (less inhibition)
- Cond: arabinose 10000000 nM; compound 0.1 mM; raw OD600 reference: median of DMSO wells […], cell-free background 0.052
Where a name gives a salt, the structure may show the parent alone.
Attribute Measured: growth

Compound | Value Measured
CC(C)NCC(O)c1ccc(O)c(O)c1 (single isomer, unassigned; (-)) [(-)-Isoproterenol hydrochloride] | 0.32
O=C1NCC2(CCN(CCc3ccccc3)CC2)O1 [Fenspiride hydrochloride] | 0.336
Cc1ncc(C[n+]2csc(CCO)c2C)c(N)n1 [Thiamine hydrochloride] | 0.362
CN(C)CCN(Cc1ccccc1)c1ccccn1 [Tripelennamine hydrochloride] | 0.307

----------
- Test system: E. coli TESEC Mtb Alr
- Test Details: growth (OD600 after 10 h); higher = more growth (less inhibition)
- Cond: arabinose 10000000 nM; compound 0.1 mM; raw OD600 reference: median of DMSO wells […], cell-free background 0.052
Where a name gives a salt, the structure may show the parent alone.
Attribute Measured: growth

Compound | Attribute Measured | Value Measured
CC(C(=O)O)c1cccc(C(=O)c2ccccc2)c1 (centres undefined) | growth | 0.36
Nc1c2ccccc2nc2ccccc12 | growth | 0.0885
Cc1ncc(CO)c(CO)c1O [Pyridoxine hydrochloride] | growth | 0.32
O=C1c2cccc(O)c2C(=O)c2c(O)cccc21 [1,8-Dihydroxyanthraquinone] | growth | 0.218
O=C(O)CCC(=O)Nc1ccc(S(=O)(=O)Nc2nccs2)cc1 | growth | 0.317
N=C(N)N1CCc2ccccc2C1 [Debrisoquin sulfate] | growth | 0.334
CC1(C)[C@H](C(=O)O)N2C(=O)C[C@H]2S1(=O)=O | growth | 0.361
CC(C)NCC(O)c1ccc(O)c(O)c1 (single isomer, unassigned; (+)) [(+)-Isoproterenol (+)-bitartrate salt] | growth | 0.326
C#C[C@]1(O)CC[C@H]2[C@@H]3CCC4=CCCC[C@@H]4[C@H]3CC[C@@]21C | growth | 0.289

----------
The following compounds are listed with their measured growth values.
- Tested on: E. coli TESEC Mtb Asd
- Test Details: growth (OD600 after 10 h); higher = more growth (less inhibition)
- Cond: arabinose induction (level): Low; compound 0.1 mM; raw OD600 reference: median of DMSO wells 0.417, cell-free background 0.041
Where a name gives a salt, the structure may show the parent alone.
Attribute Measured: growth

Compound | Target Desc | Value Measured
CCCCNc1cc(C(=O)O)cc(S(N)(=O)=O)c1Oc1ccccc1 [Bumetanide] | E. coli TESEC Mtb Asd | 0.449
COc1ccc(CCN(C)CCCC(C#N)(c2ccc(OC)c(OC)c2)C(C)C)cc1OC (stereo not drawn) [Verapamil hydrochloride] | E. coli TESEC Mtb Asd | 0.346
CC(N/C(=N\C#N)Nc1ccncc1)C(C)(C)C (stereo not drawn) [Pinacidil] | E. coli TESEC Mtb Asd | 0.412
CC(C)(O)c1ccccc1CC[C@@H](SCC1(CC(=O)O)CC1)c1cccc(/C=C/c2ccc3ccc(Cl)cc3n2)c1 [Montelukast] | E. coli TESEC Mtb Asd | 0.347
OCCN1CCN(CC/C=C2/c3ccccc3Sc3ccc(Cl)cc32)CC1 [Zuclopenthixol dihydrochloride] | E. coli TESEC Mtb Asd | 0.215
NS(=O)(=O)c1cc2c(cc1Cl)N=CNS2(=O)=O [Chlorothiazide] | E. coli TESEC Mtb Asd | 0.447
CNCCCC12CCC(c3ccccc31)c1ccccc12 [Maprotiline hydrochloride] | E. coli TESEC Mtb Asd | 0.164
CN(C)CCC=C1c2ccccc2COc2ccccc21 [Doxepin hydrochloride] | E. coli TESEC Mtb Asd | 0.326
